B1: KCNAB2 (parent)
chain: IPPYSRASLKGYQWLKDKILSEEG

# Variants of: B1
# EXPERIMENTAL_DETAILS: protein stability index of a GFP-peptide fusion (GPS, HEK-293T) (PSI 1-6); higher = more stable;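 also: lentivirally expressed fusions sorted by FACS into six bins by GFP to DsRed ratio, PSI derived from sequencing read proportions per bin multiplied by bin number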
# CONDITION_LABEL: c terminus: a fixed tail appended
Entries and their protein stability index
Respond using a number only.

• S21D = 3.56

Ask | Give the reported protein stability index for this variant. S8P
Reply | 2.64

Ask | Give the reported protein stability index for this variant. A7F
Reply | 2.23

Reference source for all entries: the supplement of paper PMC10567573
